target: DCLK1-FL1Δ D511N (Homo sapiens, UniProt O15075, D511N); construct: DCLK1-FL1Δ (residues 50-686); 8XHis tag with TEV protease cleavage site (N); made in house; host or cells: Escherichia coli C41(DE3); test: SPR binding to immobilised DCLK1-FL1Δ D511N (non-phosphorylated); conditions: KD, steady state fitting, SPR, 18 °C, DCLK1 FL1Δ D511N immobilised; mean ± SEM
Sequence (O15075 50-686 D511N): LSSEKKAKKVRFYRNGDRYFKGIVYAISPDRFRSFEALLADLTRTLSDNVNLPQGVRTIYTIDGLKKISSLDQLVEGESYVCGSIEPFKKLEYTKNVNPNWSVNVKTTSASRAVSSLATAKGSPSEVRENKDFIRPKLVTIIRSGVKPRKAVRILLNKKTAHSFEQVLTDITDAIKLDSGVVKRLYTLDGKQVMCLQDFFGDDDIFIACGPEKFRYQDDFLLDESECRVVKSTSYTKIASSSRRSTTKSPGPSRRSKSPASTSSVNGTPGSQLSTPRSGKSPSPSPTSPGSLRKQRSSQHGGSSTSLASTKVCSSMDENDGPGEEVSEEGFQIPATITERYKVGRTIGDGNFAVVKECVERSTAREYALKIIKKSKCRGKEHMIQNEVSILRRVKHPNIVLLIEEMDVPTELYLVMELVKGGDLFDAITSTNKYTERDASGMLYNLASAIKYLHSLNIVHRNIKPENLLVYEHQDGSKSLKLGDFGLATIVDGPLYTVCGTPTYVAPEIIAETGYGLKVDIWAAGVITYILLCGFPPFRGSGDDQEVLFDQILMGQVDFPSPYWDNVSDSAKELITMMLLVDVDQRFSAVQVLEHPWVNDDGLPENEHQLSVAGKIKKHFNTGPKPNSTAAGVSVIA
Each entry below carries its recorded Kd.
Write the answer as a number in nM, unit excluded.

Simply: COc1cc(N2CCN(C)CC2)ccc1Nc1ncc2c(n1)N(C)c1ccccc1C(=O)N2C , DCLK1-FL1Δ D511N (Homo sapiens, UniProt O15075, D511N), Kd = 14

// Kd (DCLK1-FL1Δ D511N (Homo sapiens, UniProt O15075, D511N)) for CCN1C(=O)c2ccccc2N(C)c2nc(Nc3ccc(N4CCN(C)CC4)cc3OC)ncc21 = 24
